FYI, the data here is from patent EP0885186B1.

Give measured IC50 for each item. Keep answers brief.
# test-target: NPY-Y1 receptor (Homo sapiens, UniProt P25929)
# Construct: endogenous in cells
# Sequence (P25929 whole entry): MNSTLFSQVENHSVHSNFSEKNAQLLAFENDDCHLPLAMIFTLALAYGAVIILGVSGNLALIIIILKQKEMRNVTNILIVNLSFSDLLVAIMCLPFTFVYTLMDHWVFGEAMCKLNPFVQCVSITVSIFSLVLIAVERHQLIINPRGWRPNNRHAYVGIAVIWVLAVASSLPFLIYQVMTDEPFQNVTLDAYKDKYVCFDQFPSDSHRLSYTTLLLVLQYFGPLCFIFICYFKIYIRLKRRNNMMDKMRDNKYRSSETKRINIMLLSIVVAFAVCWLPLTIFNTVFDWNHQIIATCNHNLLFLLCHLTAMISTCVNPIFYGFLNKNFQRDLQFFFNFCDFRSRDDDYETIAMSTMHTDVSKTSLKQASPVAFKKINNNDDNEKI
# experiment: Studies of binding with SK-N-MC cells, displacement of [125I]-Bolton-Hunter-NPY
# applied-conditions: inhibition of specific binding of [125I]-Bolton-Hunter-NPY, 3 hours at ambient temperature
Numeric only. Scale: nM

Lookup: Complete the entry with IC50 for N=C(N)NCCC[C@@H](NC(=O)C(c1ccc(Cl)cc1)c1ccc(Cl)cc1)C(=O)NCc1ccc(CNC(N)=O)cc1 [(F)]
Found: 0.35

Lookup: Find the measured IC50 of N=C(N)NCCC[C@@H](NC(=O)C(c1ccc(O)cc1)c1ccc(O)cc1)C(=O)NCc1ccc(CNC(N)=O)cc1 [(G)] and report it.
Found: 0.17

Lookup: Answer with the recorded IC50 for the molecule listed here: CN(CCCC(NC(=O)C(c1ccccc1)c1ccccc1)C(=O)NCc1ccc(O)cc1)C(=N)N (racemic) [(B)]
Found: 0.62

Lookup: Give IC50 for CCNC(=O)NCc1ccc(CNC(=O)[C@@H](CCCNC(=N)N)NC(=O)C(c2ccccc2)c2ccccc2)cc1 [(D)]
Found: 0.75

Lookup: Query IC50 for N=C(N)NCCC[C@@H](NC(=O)C(c1ccccc1)c1ccccc1)C(=O)NCc1ccc(CC(N)=O)cc1 [(C)]
Found: 0.63

Lookup: Give the measured IC50 for CCOC(=O)CNC(=O)NCc1ccc(CNC(=O)[C@@H](CCCNC(=N)N)NC(=O)C(c2ccccc2)c2ccccc2)cc1 [(E)]
Found: 0.4
